- PROTOCOL_SUMMARY: solvent given as SMILES
- TEST_SETTINGS: in CS(C)=O
I'd be grateful if you could share measured emission maximum for these entries.
Unit nm implied. Number only.

Please look up its emission maximum: COC(=O)C(Cc1ccc2oc(-c3ccc(-n4c5ccccc5c5ccccc54)cc3)nc2c1)NC(=O)OC(C)(C)C (centres undefined)
445.99

Using the record for N#CC1=C(N)n2c(=O)c3ccccc3c(=O)n2C1c1cccs1 (centres undefined) , report its emission maximum.
446

Reported emission maximum for `Cc1ccc(-c2c3nc(c(-c4ccc(C)cc4)c4ccc([nH]4)c(-c4ccc(C)cc4)c4nc(c(-c5ccc(C)cc5)c5ccc2[nH]5)C=C4N2CCOCC2)C=C3)cc1` : what is it?
666

Please give the measured emission maximum for this compound: `CN(C)c1ccc2nc(-c3ccc(C(=O)OC[C@H](NC(=O)OC(C)(C)C)C(=O)OCc4ccccc4)cc3)sc2c1`
583

Need emission maximum, item `CCN(CC)c1ccc(OC)c(C=O)c1`
558

Any idea what emission maximum was measured for `COc1ccc(/N=N/c2c(O)c3ccccc3n(C)c2=O)c(S(=O)(=O)O)c1` ?
548

I would be grateful if you could share the reported emission maximum for `O=C1c2ccccc2-c2cc3ccccc3c(=O)n21` .
455

Can you share its emission maximum? I mean this compound: `CC(C)CCCCN1CCc2c1ccc1c3c(ccc21)C(=O)CCC3`
472

I would be grateful if you could share the reported emission maximum for `CCN(CC)c1ccc2cc(/C=C/C(=C(C#N)C#N)c3ccc(N(c4ccccc4)c4ccccc4)cc3)c(=O)oc2c1` .
643

###

Give emission maximum for every item shown.
- PROTOCOL_SUMMARY: solvent given as SMILES
- TEST_SETTINGS: in CCO
# value in nm; strip the unit string

Need emission maximum, item `Nc1ccc2c(c1)C(=O)NC2=O`
520

For `CC[N+](CC)=c1ccc2cc3c(oc-2c1)-c1ccc(N(C)C)cc1CC3` , what is its reported emission maximum?
644

Tell me the measured emission maximum of `O=C(c1ccc(N(c2ccccc2)c2ccccc2)cc1)[C@H]1[C@H](c2ccc(F)cc2)C[C@](O)(c2ccccn2)C[C@]1(O)c1ccccn1` , please.
515

emission maximum for `CCNc1cc2c(cc1C)C(c1ccccc1C(=O)O)=C1CCCC(/C=C/C3=[N+](C)c4ccc5ccccc5c4C3(C)C)=C1O2` ?
741

Requested read-out: emission maximum. Entry: CC/[NH+]=c1\cc2oc3cc(NCCC(=O)NC(CCC(=O)OC)C(=O)OC)c4ccccc4c3nc-2cc1C (centres undefined)
644

Request the reported emission maximum associated with `COC(=O)c1nc(-c2cccc3ccccc23)oc1C`
344

Suppose we examine the compound `CN(C)c1ccc(C#Cc2ccc3ccc4c(C#Cc5ccc(N(C)C)cc5)ccc5ccc2c3c54)cc1` ; what emission maximum value has been reported?
540

Can you share its emission maximum? I mean this compound: `COc1ccc(-c2cc3ccc4cc(-c5ccc(OC)cc5)cc5ccc(c2)c3c45)cc1`
416.27

If you can, please state the reported emission maximum value of `Nc1ccc2c(C(F)(F)F)cc(=O)oc2c1` .
485

###

- PROTOCOL_SUMMARY: solvent given as SMILES
- TEST_SETTINGS: in CC#N
Please use fulfilled whenever emission maximum is not below 500 nm, and not fulfilled whenever it is.

Does `CC1(C)CC(/C=C/c2ccc(-n3ccnc3)cc2)=CC(=C(C#N)C#N)C1` have a reported emission maximum of at least 500 nm?
fulfilled

Entry CC1(C)CC(=O)C2=C(C1)Oc1ccc3cc(O)ccc3c1C2c1ccccn1 (stereo unspecified) : is its emission maximum no less than 500 nm?
not fulfilled

Would you say `CCOc1cc2c(cc1/C=C/C1=CC(=C(C#N)C#N)CC(C)(C)C1)c1ccccc1n2CC` shows emission maximum at minimum 500 nm?
fulfilled

Determine whether this compound has emission maximum no lower than 500 nm: `CC(=O)c1ccc(-c2nc3ccc(N(C)C)cc3s2)cc1`
fulfilled

Item `N#Cc1nn(-c2cc(F)cc(F)c2)nc1N1CCCC1` with emission maximum of 500 nm or above?
not fulfilled

Item `COc1ccc(-c2nc(N)nc(C#N)c2C#N)cc1OC` with emission maximum of 500 nm or above?
not fulfilled

Is it the case that `COc1ccc(-n2nc(C#N)c(N3CCCC3)n2)cc1OC` has emission maximum reaching or exceeding 500 nm?
not fulfilled

Say whether `C#Cc1ccc2ccc3cccc4ccc1c2c34` shows emission maximum of 500 nm or more.
not fulfilled

Determine whether measured emission maximum meets or exceeds 500 nm for `C(=C\c1cnc2ccccc2n1)/c1ccc(N2CCCCC2)cc1`
fulfilled

Is the recorded value of emission maximum equal to or greater than 500 nm for this compound? C1=C(c2ccc(-c3cccs3)s2)CCC(c2ccccc2)C1 (stereo unspecified)
not fulfilled

Item `N#CC1=C(c2ccc(-c3cccs3)s2)CCC1` with emission maximum of 500 nm or above?
not fulfilled

I'd appreciate it if you could say whether `C[C@]12SC(=O)C=C1c1nc(-c3ccc(O)cc3)[nH]c1C1=CC(=O)S[C@@]12C` has emission maximum at least equal to 500 nm.
fulfilled

Is the recorded value of emission maximum equal to or greater than 500 nm for this compound? `O=c1oc2ccc(Cl)cc2cc1-c1cc2cc(Cl)ccc2o1`
not fulfilled

Assess whether reported emission maximum for `N#CC(/N=C/c1ccccc1O)=C(C#N)/N=C/c1ccccc1O` sits at 500 nm or higher.
fulfilled

Form field: emission maximum at least 500 nm? Entry: `O=c1[nH]c(=O)n([C@@H]2O[C@H](CO)[C@@H](O)[C@H]2O)c2ccsc12`
not fulfilled

Reported emission maximum reaches at least 500 nm for `COc1ccc(-c2ccc(-c3ccc(C#N)s3)s2)cc1` ?
not fulfilled

In plain terms: is recorded emission maximum at least 500 nm for `c1ccc(-c2nc(-c3ccccc3)c(-c3ccccc3)[nH]2)cc1` ?
not fulfilled

###

- PROTOCOL_SUMMARY: solvent given as SMILES
- TEST_SETTINGS: in CC(C)O
MEASURE_NAME: emission maximum (nm)
API: value field is a number in nm; no unit string.

What does the data say about its emission maximum? Entry: `N#Cc1ccc2[nH]ccc2c1`
362

// lookup emission maximum for `O=C1Nc2ccccc2/C1=C/C(=O)c1ccccc1`
412

I am curious: what emission maximum value has been reported for NS(=O)(=O)c1ccc(N2N=C(c3ccc(O)cc3)CC2c2ccc([N+](=O)[O-])cc2)cc1 (stereo unspecified) ?
421

Data request, read-out emission maximum, for `COc1ccc(-c2ccc(-c3ccc(C#N)s3)s2)cc1`
471

State the recorded emission maximum for this entry: `CN(C)c1ccc2nc(-c3ccc(C(=O)OC[C@H](NC(=O)OC(C)(C)C)C(=O)OCc4ccccc4)cc3)sc2c1`
558

# emission maximum lookup, item `Nc1ccc2c(c1)C(=O)O/C2=C\c1ccc(Cl)cc1`
484.97

Which measured emission maximum value corresponds to COC(=O)C(Cc1ccc2oc(-c3ccc(-n4c5ccccc5c5ccccc54)cc3)nc2c1)NC(=O)OC(C)(C)C (stereo unspecified) ?
431

// lookup emission maximum for `O=C1c2ccccc2C(=O)N1c1ccc(Cn2cncn2)cc1`
427

For `Nc1ccc2c(C(F)(F)F)cc(=O)oc2c1` , what is its reported emission maximum?
481

emission maximum lookup needed for `N#Cc1cc(-c2ccc(F)cc2)cnc1O` , thanks.
424

Please look up its emission maximum: `Nc1cc(N)cc(-c2nc3ccccc3s2)c1`
513

###

- PROTOCOL_SUMMARY: solvent given as SMILES
- TEST_SETTINGS: in C1COCCO1
Would you mind telling me the reported emission maximum of each entry?

Item N#Cc1ccc(/C=C/C=C/C2=NC3C(=O)NC(N)=NC3N2[C@H]2C[C@H](O)[C@@H](CO)O2)cc1 (some centres undefined) has what recorded emission maximum?
486 nm

Returns the measured emission maximum for the input compound. Input: `CC(C)CCC[C@@H](C)[C@H]1CC[C@H]2[C@@H]3CC=C4C[C@@H](OC(=O)Oc5cc(/C=C/c6ccc(N(C)C)cc6)ccc5[N+](=O)[O-])CC[C@]4(C)[C@H]3CC[C@]12C`
573 nm

What emission maximum value was documented for this compound, `N#Cc1c(-c2ccccc2)cc(-c2ccccc2)[nH]c1=S` ?
512 nm

Look up emission maximum for this compound: `CC(=O)Nc1ccc(C2=N/C(=C\c3ccc(C#N)cc3)C(=O)O2)cc1`
461 nm

###

- PROTOCOL_SUMMARY: solvent given as SMILES
- TEST_SETTINGS: in ClC(Cl)Cl
Exercise: for every item that follows, state its recorded emission maximum.
Your answer is read as nm, so omit the unit and give the number.

Which emission maximum is listed for `CC1=CC(C)=[N+]2C1=C(c1ccc(I)cc1)c1c(C)cc(C)n1[B-]2(OCc1ccccc1)OCc1ccccc1` ?
521.92

Which measured emission maximum value corresponds to `C[Si](C)(C)c1sc([Si](C)(C)C)c2c1sc1c2sc2sc3sc4c(sc5c([Si](C)(C)C)sc([Si](C)(C)C)c54)c3c21` ?
360

Sample O=P1(c2ccccc2)C(c2ccc(N(c3ccccc3)c3ccccc3)cc2)=Cc2ccccc21 (stereo not drawn) — what was its emission maximum?
529

Recorded emission maximum of `Cc1ccc(C2=C3C=CC(/C=C/c4ccccc4)=[N+]3[B-](F)(F)n3c(/C=C/c4ccccc4)ccc32)cc1` , please.
647

emission maximum lookup needed for `COc1ccc(C2=Cc3c4ccccc4c4ccccc4[n+]3[B-](F)(F)O2)cc1` , thanks.
461

Form field: reported emission maximum of `Cc1ccc(N(c2ccc(C)cc2)c2ccc(-c3ccc(C=C(C#N)C#N)cc3)cc2)cc1`
676

I have this compound here, `CC(C)(C)[Si](C)(C)C#Cc1c2c(=O)c3ccccc3c2c(C#C[Si](C)(C)C(C)(C)C)c2c(=O)c3ccccc3c12` , and I need its recorded emission maximum.
571

# emission maximum lookup, item `COc1ccc2c(c1)CCc1c(-c3ccccc3)c3n(c1-2)[B-](F)(F)[N+]1=c2ccc4ccccc4c2=C(c2ccccc2)C1=N3`
730
